Where do the numbers come from? From the supplement of paper PMC10567573.

# Measurement description: protein stability index of a GFP-peptide fusion (GPS, HEK-293T) (PSI 1-6); higher = more stable;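 also: 24-mer peptide tiles fused after GFP, lentivirally expressed, FACS-sorted into six equal bins by GFP/DsRed ratio, decoded by Illumina sequencing, PSI is the read-weighted mean bin number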
# Reported conditions: treatment: DMSO; c terminus: a fixed tail appended
Experimental endpoint: protein stability index
# respond with the number and nothing more

VLRLCCKKLKIFAMPMQDIKMILK [PRAME] : 2.81
STSDSDLTCDSSTSSSDDDEEVSG [C18orf25] : 5.22
TVMMWPLAVYHRLWDRAYVRLKPA [RETREG3] : 2.34
LEISDQEVLEWYTAKDFIVGKSLT [EFHC1] : 3.06
FGDVSERLALRQRLKCRSFKWYLE [GALNT9] : 2.29
EVKPVLEVLVGKTIEQSLLEVMEE [RSPH3] : 2.48
KHYRFTHAEIIAWIRICRPGSIIG [CDC14A] : 2.55
KVVECLDHARGKSQVALKIIRNVG [CLK3] : 2.24

Consider the sequence LLSQEKLQEQHLSSPQGVQLDIAS [BCL2L13] and give its recorded protein stability index.
4.45

Consider the sequence ELEMIGFIENNVSKLSLLLNDISR [TRIP13] and give its recorded protein stability index.
2.2

Consider the sequence LQDLQVTDILPQMITLSEAYIQIW [USP39] and give its recorded protein stability index.
2.58

====

# Measurement description: protein stability index of a GFP-peptide fusion (GPS, HEK-293T) (PSI 1-6); higher = more stable
# Reported conditions: treatment: MLN4924 1 uM, 8 h; c terminus: a fixed tail appended
Recorded protein stability index values for a group of sequences are listed next.
# respond with the number and nothing more

Consider the sequence LGPELIKESNANPIFMRKDTKMSF [DPCD] and give its recorded protein stability index.
3.43

Consider the sequence QQYAAQQYPGNYEQQQILIRQLQE [ACBD3] and give its recorded protein stability index.
4.06

Consider the sequence SSAIEVIMLRSNESFTMDDMSWTC [VDR] and give its recorded protein stability index.
2.29

Consider the sequence VIMQVPERIVVAGNNEDVSFSRPA [MFF] and give its recorded protein stability index.
3.47

Consider the sequence LQDLQVTDILPQMITLSEAYIQIW [USP39] and give its recorded protein stability index.
2.55

Consider the sequence QLVVMHPTPQVDELDILPIHPPSG [BTBD10] and give its recorded protein stability index.
3.75

Consider the sequence QLLCPWAPLSGPQALMLPPGSFWG [VENTX] and give its recorded protein stability index.
1.73

Consider the sequence LKGGLQEVAEQLELERIGPQHQAG [CNOT7] and give its recorded protein stability index.
4.94

Consider the sequence THFTFKDLHFKMFDVGGQRSERKK [GNAI1] and give its recorded protein stability index.
2.93

Consider the sequence PVGQEIVIPFKVDTILKYLKDHFS [IQUB] and give its recorded protein stability index.
1.95

Consider the sequence AILMKAYQRFRQKSKASFLLLASG [PTGFR] and give its recorded protein stability index.
2.83

Consider the sequence QLKLDHYRAALRSCSLVLEHQPDN [FKBP8] and give its recorded protein stability index.
2.98

Consider the sequence YPPPPPALPSSAPSGPPPPPPSVL [WASL] and give its recorded protein stability index.
4.5

====

# Measurement description: protein stability index of a GFP-peptide fusion (GPS, HEK-293T) (PSI 1-6); higher = more stable
# Reported conditions: treatment: MLN4924 1 uM, 8 h; c terminus: a fixed tail appended
Recorded protein stability index values for a group of sequences are listed next.

// solved cases for protein stability index follow
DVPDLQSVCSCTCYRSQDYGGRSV [KCNK9] : 2.81
ALEQREQDAVDQVKVIMDALDERA [TRIM29] : 5.31
MTGAYNNFFRMFDRNTKRDVTLEA [PPP2R2C] : 3.14
VKQKISPYFKSNDVVCKNQDELRN [FAN1] : 3.64
SIRDANLYVSGLPKTMSQKEMEQL [ELAVL3] : 4.27
LAPVPTHSTVSELSRSPVATATSC [DUSP5] : 4.17
GGDLMPAPADPTAREGLAAPPRRL [FCHO1] : 5.15
PSEWRPLSEGCRAELAETIVYARV [CCDC3] : 2.51
AMEAVRVNPLHVDSTWLLLRRIRA [SLC25A39] : 2.81
GIGKNVICDRTATPLDAFRMTSAA [GFOD1] : 3.45

Kindly consider the entry below.
Consider the sequence IVLDRALHIPMYFFLAILSCSEIC [OR10K2] and give its recorded protein stability index.
3.19

====

# Measurement description: protein stability index of a GFP-peptide fusion (GPS, HEK-293T) (PSI 1-6); higher = more stable
# Reported conditions: treatment: MLN4924 1 uM, 8 h; c terminus: native
Experimental endpoint: protein stability index

// solved cases for protein stability index follow
LEGKTFYSKKDRPLCKSHAFSHV [PDLIM7] : 3.83
GSGSSYVQNGTGNAYEEEANKQS [CNOT7] : 5.2
RQRLQDISSLPLPQSLKNYLQYQ [SPSB4] : 3.65
TKKRHTPRGHAESTSNRQPRKQG [SMOC2] : 3.3
RKRKKATEAIDSLRKSKRLRNRK [FBXO28] : 5.19

Consider the sequence FLQALSLAVDKQFEERKKLAAYI [TRIP13] and give its recorded protein stability index.
2.54

Consider the sequence KVLRRWVDEEWPKRERGDPSRHF [EDARADD] and give its recorded protein stability index.
3.42

Consider the sequence SRLLIFPLYICCNFLYISPEKKN [GMCL1] and give its recorded protein stability index.
2.71

Consider the sequence RAEKEACQREKELPAAVHPFHFV [ZBED2] and give its recorded protein stability index.
4.8

Consider the sequence "GEWGGRHPSWPWTRCLRMRPPRS" and give its recorded protein stability index.
2.88

Consider the sequence LNGYRLGERVLQVSFKTSKQHKA [ELAVL3] and give its recorded protein stability index.
2.69

Consider the sequence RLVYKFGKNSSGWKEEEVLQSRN [ELF3] and give its recorded protein stability index.
3.21

Consider the sequence IPKCSKIVIDFDSINSRPSQKLQ [DCTD] and give its recorded protein stability index.
3.38

====

# Measurement description: protein stability index of a GFP-peptide fusion (GPS, HEK-293T) (PSI 1-6); higher = more stable
# Reported conditions: treatment: DMSO; c terminus: a fixed tail appended
protein stability index of 3 or higher: Condition met. Under 3: Condition not met.

IILTATDGLFDNMPDYMILQELKK [PPTC7] : Condition not met
NQLVGPESIAHIGDVMFTGTADGR [APMAP] : Condition met
RRSMKRKALFTCPFNGDCRITKDN [VDR] : Condition met
DDGRLLEYDTVTREVKVLLDQLRF [APMAP] : Condition not met

For this sequence, is measured protein stability index 3 or higher? LPGPKGDDGKLGATGPMGMRGFKG [SCARA5]
Condition met

For this sequence, is measured protein stability index 3 or higher? DYKDRSVFGVPLTVNVQRTGQPLP [DLC1]
Condition met

For this sequence, is measured protein stability index 3 or higher? QQQQAMSFAILRIIRLVRVFRIFK [KCNA4]
Condition not met

====

Recorded protein stability index values for a group of sequences are listed next.
# Measurement description: protein stability index of a GFP-peptide fusion (GPS, HEK-293T) (PSI 1-6); higher = more stable
# Reported conditions: treatment: MLN4924 1 uM, 8 h; c terminus: a fixed tail appended
# respond with the number and nothing more

VFDLRMMVANILNNEAFMNQEITK [RHOBTB2] : 2.43
DQVSACIPVFRLARRRKKILFYCH [ALG2] : 2.24
VFDLPESLGGIRACTLTVFPPEET [KLHL13] : 3.39
DCLQLIADSETPTIQKGSYTFVPW [TNFSF13B] : 2.2
IILTATDGLFDNMPDYMILQELKK [PPTC7] : 2.22

Consider the sequence RTSLQYGIMCLKRLNYDRKELEKR [PPFIA4] and give its recorded protein stability index.
2.83

Consider the sequence VCVIAIGVVQALIVGYAFHFPHLL [TMEM175] and give its recorded protein stability index.
3.09

Consider the sequence NFNPLLVAGGVAVAAIALILGVAF [CEND1] and give its recorded protein stability index.
3.47

Consider the sequence SRHCPQLPPPCAALWCSGHLNGHA [ADAMTS4] and give its recorded protein stability index.
2.48

Consider the sequence SCIMENGHQPGTGPGDGPPEIAQN [SMTNL2] and give its recorded protein stability index.
4.99

====

# Measurement description: protein stability index of a GFP-peptide fusion (GPS, HEK-293T) (PSI 1-6); higher = more stable
# Reported conditions: treatment: MLN4924 1 uM, 8 h; c terminus: a fixed tail appended
Recorded protein stability index values for a group of sequences are listed next.
# respond with the number and nothing more

RSLNVFVKEDDKLIFHRHPVAQST [SPSB1] : 3.36
EQASAFQEQEIDGKSLLLMTRNDV [SAMD13] : 4.78
SSQSSLAQEEEEEDQGRTRKRKQS [DDIT3] : 5.44
RRNSSSSMSSRLSIYDNVPGSILY [DLC1] : 2.87

Consider the sequence GPSLPSKRESPGVGGGSGDEASAA [ZBTB22] and give its recorded protein stability index.
5.64

Consider the sequence QVEGLTVQYLGQAPELLGGAEPGT [ADAMTS4] and give its recorded protein stability index.
4.87

Consider the sequence EDLLAKEKDNSRRMLTDKEREMAE [LMNB1] and give its recorded protein stability index.
5.65
